targetDesc: native human MET on living human cells (human, UniProt P08581 25-1390)
Sequence (P08581 25-1390): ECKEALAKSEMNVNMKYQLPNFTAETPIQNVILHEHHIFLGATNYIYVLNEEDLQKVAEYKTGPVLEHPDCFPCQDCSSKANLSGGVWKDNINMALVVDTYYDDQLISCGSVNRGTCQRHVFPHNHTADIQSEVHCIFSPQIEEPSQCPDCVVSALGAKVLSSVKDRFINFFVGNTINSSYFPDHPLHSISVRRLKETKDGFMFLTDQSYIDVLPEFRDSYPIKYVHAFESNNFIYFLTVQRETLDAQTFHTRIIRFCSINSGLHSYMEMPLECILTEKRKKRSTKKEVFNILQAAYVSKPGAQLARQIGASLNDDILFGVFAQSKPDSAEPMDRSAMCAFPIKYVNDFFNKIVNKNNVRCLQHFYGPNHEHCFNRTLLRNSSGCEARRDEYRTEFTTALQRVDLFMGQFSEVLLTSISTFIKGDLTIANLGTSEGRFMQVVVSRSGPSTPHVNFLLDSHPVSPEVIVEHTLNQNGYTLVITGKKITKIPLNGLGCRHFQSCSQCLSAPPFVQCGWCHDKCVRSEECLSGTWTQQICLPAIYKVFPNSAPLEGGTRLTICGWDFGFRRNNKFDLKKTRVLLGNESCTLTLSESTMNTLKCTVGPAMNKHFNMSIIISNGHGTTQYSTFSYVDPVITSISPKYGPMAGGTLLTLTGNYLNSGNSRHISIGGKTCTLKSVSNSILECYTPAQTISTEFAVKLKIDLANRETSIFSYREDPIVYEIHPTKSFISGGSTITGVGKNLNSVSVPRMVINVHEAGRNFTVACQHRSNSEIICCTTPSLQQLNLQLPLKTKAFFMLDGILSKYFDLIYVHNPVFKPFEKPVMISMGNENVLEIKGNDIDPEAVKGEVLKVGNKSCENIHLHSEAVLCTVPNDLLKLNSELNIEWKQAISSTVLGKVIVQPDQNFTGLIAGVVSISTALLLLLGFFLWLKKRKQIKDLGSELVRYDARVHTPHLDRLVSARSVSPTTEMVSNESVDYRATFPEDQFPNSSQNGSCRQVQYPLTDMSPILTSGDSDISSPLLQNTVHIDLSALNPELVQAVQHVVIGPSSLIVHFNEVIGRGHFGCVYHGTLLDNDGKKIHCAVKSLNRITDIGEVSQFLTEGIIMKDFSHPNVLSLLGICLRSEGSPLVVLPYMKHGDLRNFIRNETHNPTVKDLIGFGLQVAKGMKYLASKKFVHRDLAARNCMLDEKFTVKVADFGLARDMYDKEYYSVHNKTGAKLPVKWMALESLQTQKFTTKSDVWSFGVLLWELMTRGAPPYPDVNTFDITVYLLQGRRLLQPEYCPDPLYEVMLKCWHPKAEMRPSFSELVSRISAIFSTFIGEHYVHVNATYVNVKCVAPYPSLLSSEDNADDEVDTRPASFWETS
assayProtocol: cell-based or functional assay
readoutName: cell scattering score, HPAF-II, 1.000 nM
Provide a numeric answer, followed by its unit.

Q: Requested field: cell scattering score, HPAF-II, 1.000 nM. Item: chimeric llama-human IgG1 mAb 71G2 (antibody, V domains shown) VH: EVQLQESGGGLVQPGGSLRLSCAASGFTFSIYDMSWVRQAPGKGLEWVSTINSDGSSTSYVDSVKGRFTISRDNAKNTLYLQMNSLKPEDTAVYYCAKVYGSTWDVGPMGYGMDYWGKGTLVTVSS VL: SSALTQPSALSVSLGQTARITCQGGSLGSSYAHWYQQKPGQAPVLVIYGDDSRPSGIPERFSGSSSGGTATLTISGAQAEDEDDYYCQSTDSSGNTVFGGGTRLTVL
Ans: 4 score 0-4
